Cited source: patent US12421225B2

MEASUREMENT_TARGET: human Nav1.7 (Homo sapiens (Human), UniProt Q15858)
Sequence (Q15858 whole entry): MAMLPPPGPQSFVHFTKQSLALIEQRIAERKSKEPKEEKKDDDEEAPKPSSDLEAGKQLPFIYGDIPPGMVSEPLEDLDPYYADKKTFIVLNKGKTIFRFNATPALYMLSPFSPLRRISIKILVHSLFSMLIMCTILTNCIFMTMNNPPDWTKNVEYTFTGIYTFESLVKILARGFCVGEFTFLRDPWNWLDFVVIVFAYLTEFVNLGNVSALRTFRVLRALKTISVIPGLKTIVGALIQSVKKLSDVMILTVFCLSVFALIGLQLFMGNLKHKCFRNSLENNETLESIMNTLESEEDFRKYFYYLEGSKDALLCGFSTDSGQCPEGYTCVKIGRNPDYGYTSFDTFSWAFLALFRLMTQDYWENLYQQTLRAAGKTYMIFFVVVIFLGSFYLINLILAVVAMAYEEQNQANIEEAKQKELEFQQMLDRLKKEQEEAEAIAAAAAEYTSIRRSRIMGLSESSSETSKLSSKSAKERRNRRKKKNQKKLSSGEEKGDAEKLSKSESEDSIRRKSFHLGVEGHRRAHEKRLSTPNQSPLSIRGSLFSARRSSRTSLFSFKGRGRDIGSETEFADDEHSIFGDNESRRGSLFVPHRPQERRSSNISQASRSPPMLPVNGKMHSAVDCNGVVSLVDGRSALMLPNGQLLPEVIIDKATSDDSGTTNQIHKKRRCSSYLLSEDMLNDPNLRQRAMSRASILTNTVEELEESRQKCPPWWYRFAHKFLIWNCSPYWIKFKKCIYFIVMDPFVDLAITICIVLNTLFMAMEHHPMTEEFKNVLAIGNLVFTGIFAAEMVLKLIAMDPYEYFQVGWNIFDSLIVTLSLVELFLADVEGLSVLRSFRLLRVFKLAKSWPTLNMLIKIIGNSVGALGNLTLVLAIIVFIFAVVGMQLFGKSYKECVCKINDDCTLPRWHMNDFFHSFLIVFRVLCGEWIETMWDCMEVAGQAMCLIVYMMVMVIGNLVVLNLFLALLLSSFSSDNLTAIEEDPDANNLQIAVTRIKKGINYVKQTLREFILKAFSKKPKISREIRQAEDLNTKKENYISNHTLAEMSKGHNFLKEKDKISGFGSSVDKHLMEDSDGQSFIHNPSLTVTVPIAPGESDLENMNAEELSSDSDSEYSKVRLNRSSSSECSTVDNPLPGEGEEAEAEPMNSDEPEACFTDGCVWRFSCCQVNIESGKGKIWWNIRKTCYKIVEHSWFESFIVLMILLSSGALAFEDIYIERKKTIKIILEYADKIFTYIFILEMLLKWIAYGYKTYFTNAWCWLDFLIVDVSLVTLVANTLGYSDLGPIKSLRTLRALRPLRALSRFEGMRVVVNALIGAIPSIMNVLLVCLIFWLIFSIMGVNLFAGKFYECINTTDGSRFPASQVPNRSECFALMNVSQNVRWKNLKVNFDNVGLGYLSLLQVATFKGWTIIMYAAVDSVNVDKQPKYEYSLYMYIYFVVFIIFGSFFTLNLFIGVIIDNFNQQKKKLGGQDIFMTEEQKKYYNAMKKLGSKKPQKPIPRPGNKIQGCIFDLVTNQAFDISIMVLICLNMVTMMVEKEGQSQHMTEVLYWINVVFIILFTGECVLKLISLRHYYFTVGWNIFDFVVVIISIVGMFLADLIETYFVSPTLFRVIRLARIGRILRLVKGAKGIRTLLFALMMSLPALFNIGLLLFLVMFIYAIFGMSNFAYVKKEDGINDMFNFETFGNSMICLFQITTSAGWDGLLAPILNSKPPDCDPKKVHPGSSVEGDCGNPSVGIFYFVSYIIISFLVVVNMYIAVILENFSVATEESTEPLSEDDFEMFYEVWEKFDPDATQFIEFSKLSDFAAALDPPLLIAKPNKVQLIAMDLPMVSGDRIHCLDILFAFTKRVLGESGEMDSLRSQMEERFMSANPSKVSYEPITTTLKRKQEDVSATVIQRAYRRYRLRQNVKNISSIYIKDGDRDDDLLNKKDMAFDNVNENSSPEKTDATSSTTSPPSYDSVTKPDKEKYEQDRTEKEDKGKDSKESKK
Sequence (Q07699 19-218 partner): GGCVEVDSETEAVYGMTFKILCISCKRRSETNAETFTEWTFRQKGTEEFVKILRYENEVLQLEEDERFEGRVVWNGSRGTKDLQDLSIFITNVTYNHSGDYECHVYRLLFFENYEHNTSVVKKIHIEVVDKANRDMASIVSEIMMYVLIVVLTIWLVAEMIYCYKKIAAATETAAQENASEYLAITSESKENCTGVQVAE
TEST_DETAILS: Human Nav1.7 inhibitory activity evaluation (automated patch clamp QPatch16X, HEK293A cells stably expressing human Nav1.7 and human Navβ1)
Type: cell-based
STUDY_CONDITIONS: human Nav1.7, automated patch clamp
QUANTITY: IC50

Known IC50 results, listed for orientation:
# MOLECULE, QUANTITY, MEASURED_VALUE
measured = [
    ("N#Cc1ccc2c(c1)C[C@@H](NC(=O)c1cc3n(n1)CCN(Cc1ccc(F)cc1)C3)CO2", "IC50", "< 1000 nM"),
    ("O=C(N[C@H]1COc2ccc(CCOC(F)F)cc2C1)c1cc2n(n1)CCC(C(F)F)O2 (stereo partly shown) [Example 164]", "IC50", "< 1000 nM"),
    ("N#Cc1ccc2c(c1)C[C@@H](NC(=O)c1cc3n(n1)CCC(COCC1CCC1)O3)CO2 (stereo partly shown)", "IC50", "< 1000 nM"),
    ("O=C(N[C@H]1COc2ccc(COCC(F)(F)F)cc2C1)c1cc2n(n1)CC(COCC1CC1)O2 (single isomer, unassigned) [186 (isomer A)]", "IC50", "< 10000 nM"),
    ("O=C(c1cc2n(n1)CCC(COCC1COC1)O2)N(CC1COC1)[C@H]1COc2ccc(-c3ccccn3)cc2C1 (stereo partly shown)", "IC50", "< 10000 nM"),
]

Give me IC50 for each of these molecules, listed below.
1. CN1Cc2nc(C(=O)NCCc3cccc(OCC(F)(F)F)c3)cn2CC1c1ccc(C(F)(F)F)cc1 (stereo not shown)
2. O=C(N[C@H]1COc2ccc(C(F)(F)F)cc2C1F)c1cc2n(n1)CCN(CC1CCCOC1)C2 (stereo partly shown)

1: < 1000 nM; 2: < 1000 nM

----------
MEASUREMENT_TARGET: human Nav1.7 (Homo sapiens (Human))
TEST_DETAILS: Human Nav1.7 inhibitory activity evaluation (automated patch clamp QPatch16X, HEK293A cells stably expressing human Nav1.7 and human Navβ1)
Type: cell-based
STUDY_CONDITIONS: human Nav1.7, automated patch clamp
Assign IC50 to each entry below.

# COMPOUND, IC50
data = [
    ("N#Cc1ccc2c(c1)C[C@@H](NC(=O)c1cc3n(n1)CC(CCCOCC(F)F)O3)CO2 (single isomer, unassigned) [604 (isomer B)]", "< 10000 nM"),
    ("O=C(N[C@H]1COc2ccc(CCOC(F)F)cc2C1)c1cc2n(n1)CC(CCN1CC(F)(F)C1)O2 (single isomer, unassigned) [238 (isomer A)]", "< 1000 nM"),
    ("O=C(N[C@H]1COc2ccc(C(F)(F)F)cc2C1O)c1cc2n(n1)CC(CCCOCC(F)(F)F)O2 (stereo partly drawn) [Example 592]", "< 10000 nM"),
    ("N#Cc1ccc2c(c1)C[C@@H](NC(=O)c1cc3n(n1)CCC(C#CC(F)(F)F)O3)CO2 (stereo partly drawn)", "< 1000 nM"),
    ("O=C(N[C@H]1COc2ccc(CC(F)(F)F)cc2C1)c1cc2n(n1)CC(COCC(F)(F)F)O2 (single isomer, unassigned) [192 (isomer B)]", "< 1000 nM"),
]

Give me IC50 for each of these compounds, listed below.
1. O=C(N[C@H]1COc2ccc(COCC(F)(F)F)cc2C1)c1cc2n(n1)CC(CCOC1CCC1)O2 (stereo partly drawn)
2. Cn1ccc(-c2ccc3c(c2)C[C@@H](NC(=O)c2cc4n(n2)CC(CCOCC2CC2)O4)CO3)n1 (stereo partly drawn)
3. CCC1CCn2nc(C(=O)N[C@H]3COc4ccc(C(F)(F)F)cc4C3O)cc2O1 (stereo partly drawn)
4. O=C(N[C@H]1COc2ccccc2C1)c1cn2c(n1)COC(c1ccccc1)C2 (stereo partly drawn)
5. N#Cc1ccc2c(c1)C[C@@H](NC(=O)c1cc3n(n1)CC(CCn1cc(C(F)(F)F)cn1)O3)CO2 (stereo partly drawn)
6. COc1cccc(-c2c(C(=O)N[C@H]3COc4ccc(Cl)cc4C3)nn3c2CCCC3)n1
7. O=C(N[C@H]1COc2ccc(COCC(F)(F)F)cc2C1)c1cc2n(n1)CC(COCC(F)(F)F)O2 (stereo partly drawn) [Example 187]
8. O=C(N[C@H]1COc2ccc(Cl)cc2C1)c1cc2n(n1)CCN(CCC1CC1)C2

["< 1000 nM", "< 1000 nM", "< 1000 nM", "< 10000 nM", "< 1000 nM", "< 1000 nM", "< 1000 nM", "< 1000 nM"]

Give me IC50 for each of these compounds, listed below.
1. O=C(N[C@H]1COc2ccc(CCN3CC(F)(F)C3)cc2C1)c1cc2n(n1)CCC(C(F)(F)F)O2 (stereo partly drawn)
2. O=C(N[C@H]1COc2ccc(COCC(F)(F)F)cc2C1)c1cc2n(n1)CCC(C1CCOC1)O2 (stereo partly drawn)

< 10000 nM
< 1000 nM

----------
MEASUREMENT_TARGET: human Nav1.7 (Homo sapiens (Human), UniProt Q15858)
TEST_DETAILS: Human Nav1.7 inhibitory activity evaluation (automated patch clamp QPatch16X, HEK293A cells stably expressing human Nav1.7 and human Navβ1)
Format: cell-based
STUDY_CONDITIONS: human Nav1.7, automated patch clamp
Assign IC50 to each entry below.

Known IC50 results, listed for orientation:
# MOLECULE, MEASURED_VALUE
records = [
    ("O=C(N[C@H]1COc2ccc(CC(F)F)cc2C1)c1cc2n(n1)C[C@H](CC1CCOCC1)O2 (single isomer, unassigned; isomer a) [590(isomer A)]", "< 1 µM"),
    ("O=C(N[C@H]1COc2ccccc2C1)c1cc2n(n1)CCN(CC(F)(F)C(F)(F)F)C2", "< 1 µM"),
    ("O=C(NC1COc2ccc3ncccc3c2C1)c1cc2n(n1)CCC(c1ccccc1F)O2 (stereo not shown)", "< 10 µM"),
]

We now examine a further molecule.
For CC(C)(F)CCC1CCc2nc(C(=O)N[C@H]3COc4ccccc4C3)cn2C1 (stereo partly shown) , what is its reported IC50?
< 10 µM

----------
MEASUREMENT_TARGET: human Nav1.5 (Homo sapiens (Human), UniProt Q14524)
Sequence (Q14524 whole entry): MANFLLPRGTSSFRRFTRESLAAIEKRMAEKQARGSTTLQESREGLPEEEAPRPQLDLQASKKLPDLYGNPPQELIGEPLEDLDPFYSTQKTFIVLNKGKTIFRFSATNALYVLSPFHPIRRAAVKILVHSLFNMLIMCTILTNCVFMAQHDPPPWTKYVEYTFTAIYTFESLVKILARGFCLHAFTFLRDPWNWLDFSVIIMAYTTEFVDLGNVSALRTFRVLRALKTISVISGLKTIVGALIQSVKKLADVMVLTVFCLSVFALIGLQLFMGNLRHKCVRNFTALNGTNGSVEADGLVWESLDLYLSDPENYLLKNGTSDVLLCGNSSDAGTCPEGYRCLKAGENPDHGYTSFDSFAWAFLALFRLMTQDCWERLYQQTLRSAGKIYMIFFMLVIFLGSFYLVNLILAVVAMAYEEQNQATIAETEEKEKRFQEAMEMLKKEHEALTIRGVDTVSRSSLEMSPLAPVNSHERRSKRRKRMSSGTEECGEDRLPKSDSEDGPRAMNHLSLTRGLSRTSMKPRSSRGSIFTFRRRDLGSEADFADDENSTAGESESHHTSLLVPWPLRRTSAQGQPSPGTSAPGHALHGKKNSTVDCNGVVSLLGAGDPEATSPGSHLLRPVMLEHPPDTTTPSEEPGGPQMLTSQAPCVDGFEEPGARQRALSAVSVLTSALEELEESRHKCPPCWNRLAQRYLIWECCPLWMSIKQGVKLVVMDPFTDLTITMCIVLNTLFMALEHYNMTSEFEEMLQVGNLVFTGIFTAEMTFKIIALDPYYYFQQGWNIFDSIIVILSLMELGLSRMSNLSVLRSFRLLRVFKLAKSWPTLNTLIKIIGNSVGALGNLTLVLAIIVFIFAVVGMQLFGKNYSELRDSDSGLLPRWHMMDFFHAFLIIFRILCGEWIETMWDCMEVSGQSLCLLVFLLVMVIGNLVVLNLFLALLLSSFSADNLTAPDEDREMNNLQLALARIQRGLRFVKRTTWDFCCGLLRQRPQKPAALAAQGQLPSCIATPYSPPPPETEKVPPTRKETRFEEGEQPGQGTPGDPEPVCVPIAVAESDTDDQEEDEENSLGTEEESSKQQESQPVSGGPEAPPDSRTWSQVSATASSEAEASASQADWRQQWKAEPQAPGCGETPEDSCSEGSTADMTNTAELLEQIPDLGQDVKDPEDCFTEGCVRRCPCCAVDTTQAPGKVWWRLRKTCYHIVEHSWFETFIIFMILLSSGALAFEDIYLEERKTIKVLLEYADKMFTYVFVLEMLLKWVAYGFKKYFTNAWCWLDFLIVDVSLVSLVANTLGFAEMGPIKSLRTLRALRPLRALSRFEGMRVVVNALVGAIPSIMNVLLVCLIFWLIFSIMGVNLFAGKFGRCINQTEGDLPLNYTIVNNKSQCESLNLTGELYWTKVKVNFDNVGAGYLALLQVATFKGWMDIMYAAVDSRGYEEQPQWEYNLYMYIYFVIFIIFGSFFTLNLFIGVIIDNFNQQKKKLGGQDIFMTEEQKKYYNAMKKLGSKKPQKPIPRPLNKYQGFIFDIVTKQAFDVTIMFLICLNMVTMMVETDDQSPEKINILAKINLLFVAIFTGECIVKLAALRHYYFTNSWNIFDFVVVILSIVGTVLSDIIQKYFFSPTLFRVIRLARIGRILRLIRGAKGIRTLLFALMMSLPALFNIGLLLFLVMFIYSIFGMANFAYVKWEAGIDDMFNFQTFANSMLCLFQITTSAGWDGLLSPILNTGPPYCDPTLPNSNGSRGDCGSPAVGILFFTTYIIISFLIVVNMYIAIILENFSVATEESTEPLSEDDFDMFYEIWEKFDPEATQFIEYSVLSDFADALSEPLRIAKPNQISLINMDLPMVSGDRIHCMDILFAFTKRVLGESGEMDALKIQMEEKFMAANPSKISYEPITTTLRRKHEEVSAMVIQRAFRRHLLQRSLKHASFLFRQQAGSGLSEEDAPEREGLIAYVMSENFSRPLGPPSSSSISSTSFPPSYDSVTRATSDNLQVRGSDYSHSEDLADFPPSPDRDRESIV
TEST_DETAILS: Human Nav1.5 inhibitory activity evaluation (automated patch clamp QPatch16X, HEK293 cells stably expressing human Nav1.5)
Format: cell-based
STUDY_CONDITIONS: human Nav1.5, automated patch clamp
pIC50: −log10 of the molar value.
Assign pIC50 to each entry below.

# COMPOUND, MEASUREMENT_TARGET, MEASURED_VALUE
rows = [
    ("N#Cc1ccc2c(c1)C[C@@H](NC(=O)c1cc3n(n1)CCC(COCC1(F)CC1)O3)CO2 (single isomer, unassigned) [552 (isomer A)]", "human Nav1.5 (Homo sapiens (Human), UniProt Q14524)", "≤ 5.52"),
    ("O=C(N[C@H]1COc2ccc(COCC(F)(F)F)cc2C1)c1cc2n(n1)CCN(CCC(F)(F)F)C2", "human Nav1.5 (Homo sapiens (Human), UniProt Q14524)", "≤ 5.52"),
    ("Cn1ccc(-c2ccc3c(c2)C[C@@H](NC(=O)c2cc4n(n2)CC(CCOCC(F)(F)F)O4)CO3)n1 (single isomer, unassigned) [206 (isomer B)]", "human Nav1.5 (Homo sapiens (Human), UniProt Q14524)", "≤ 5.52"),
    ("O=C(N[C@H]1COc2ccc(CC(F)F)cc2C1)c1cc2n(n1)CC(CCOC(F)F)O2 (stereo partly drawn) [Example 218]", "human Nav1.5 (Homo sapiens (Human), UniProt Q14524)", "≤ 5.52"),
    ("O=C(N[C@H]1COc2ccc(C(F)(F)F)cc2C1)c1cc2n(n1)CC(CCN1CC(F)(F)C1)O2 (single isomer, unassigned) [236 (isomer B)]", "human Nav1.5 (Homo sapiens (Human), UniProt Q14524)", "5.52 to 6.00"),
]

Give me pIC50 for each of these compounds, listed below.
1. O=C(N[C@H]1COc2ccc(Cl)cc2C1)c1nn2c(c1-c1ccccc1)OCCCC2
2. O=C(c1cn2c(n1)CCC(C1CCC(F)(F)CC1)C2)N1CCC1Cc1ccccc1 (stereo not drawn)
3. O=C(N[C@H]1COc2ccc(Cl)cc2C1)c1cc2n(n1)CCC(CN1CCC(F)(F)C1)O2 (single isomer, unassigned) [153 (isomer A)]

≤ 5.52
≤ 5.52
5.52 to 6.00

----------
MEASUREMENT_TARGET: human Nav1.7 (Homo sapiens (Human), UniProt Q15858)
TEST_DETAILS: Human Nav1.7 inhibitory activity evaluation (automated patch clamp QPatch16X, HEK293A cells stably expressing human Nav1.7 and human Navβ1)
Type: cell-based
STUDY_CONDITIONS: human Nav1.7, automated patch clamp
QUANTITY: IC50

# COMPOUND, IC50
data = [
    ("O=C(N[C@H]1COc2ccc(C(F)(F)F)cc2C1)c1cc2n(n1)CCC(C(F)F)O2 (mixture of isomers) [Example 160]", "< 1000 nM"),
    ("Cn1cc(-c2ccc3c(c2)C[C@@H](NC(=O)c2cc4n(n2)CC(CCOCC2CC2)O4)CO3)cn1 (stereo partly shown) [Example 460]", "< 1000 nM"),
    ("C#Cc1ccc2c(c1)C[C@@H](NC(=O)c1cc3n(n1)CCC(COCC(F)(F)F)O3)CO2 (stereo partly shown) [Example 436]", "< 1000 nM"),
    ("O=C(N[C@H]1COc2ccc(-c3cscn3)cc2C1)c1cc2n(n1)CCC(COCC1CC1)O2 (stereo partly shown) [Example 427]", "< 1000 nM"),
    ("CC(C)(F)C1CCn2nc(C(=O)N[C@H]3COc4ccc(C#N)cc4C3)cc2O1 (single isomer, unassigned) [547 (isomer B)]", "< 10000 nM"),
]

Give me IC50 for each of these compounds, listed below.
1. O=C(c1cn2c(n1)CCC(C1CCC(F)(F)CC1)C2)N1CCC1Cc1ccccc1 (stereo not shown) [Example 318]
2. O=C(N[C@H]1COc2ccc(Cl)cc2C1)c1cc2n(n1)CCC(CN1CCC(F)(F)C1)O2 (single isomer, unassigned) [153 (isomer A)]

1. < 10000 nM
2. < 1000 nM
